target.desc: Calmodulin-1 (Homo sapiens)
experiment.summary: calcium-bound CALM1 binders on microarrays, profiling panel, artefact control for SMM control-protein annotation, biochemical, small-molecule microarray, Cy5-labelled CALM1, plus calcium (AID 1112);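 note: score merges spot fluorescence with signal to noise from triplicate slides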
run.parameters: Cy5-CALM1 binding fluorescence, higher = more signal
So I've got a bunch of compounds here, and I need their composite z-score values.

For each entry beneath this line, provide reported composite z-score.
1. CC(C)C[C@@H]1NC(=O)[C@@H]2C[C@H](C(=O)NCc3ccc(F)cc3)[C@H](c3cccc(OCCO)c3)N2C1=O
2. CCC[C@@H]1C[C@@]1(CCC)[C@@H](NC(=O)c1ccccc1)c1cccc(Cl)c1

Given back:
1. 0.0115
2. 1.43

For each entry beneath this line, provide reported composite z-score.
1. O=C1O[C@@H](c2ccccc2)[C@@H](c2ccccc2)N2[C@@H](c3ccccc3OCCO)[C@]3(C(=O)Nc4ccc(C#CC5=CCCCC5)cc43)[C@@H](C(=O)N3CCCCCCC3)[C@H]12
2. C=CCOC(=O)[C@H]1[C@@H]2C(=O)O[C@@H](c3ccccc3)[C@@H](c3ccccc3)N2[C@@H](c2ccc(OCCOC(=O)[C@H]3C[C@H]4C(=O)N[C@@H](CCCCNC(C)=O)C(=O)N4[C@H]3c3ccc(O)cc3)cc2)[C@]12C(=O)Nc1ccc(I)cc12
3. COCCCNC(=O)[C@]1(CCC(=O)OC(C)(C)C)N=C(c2ccc(OCCCO)cc2)O[C@@H]1c1ccccc1CN=[N+]=[N-]
4. C=CCC(OC(C)=O)[C@@H]1[C@@H](N(Cc2cccc3ccccc23)C(=O)c2ccc(-c3ccccc3)cc2)c2cc(OCCCO)ccc2N1C(=O)c1ccc2ccccc2c1 (stereo partly specified)

Given back:
1. 1.72
2. -0.732
3. 0.282
4. 0.544

---

experiment.summary: basal 3T3-L1 adipocyte mitochondrial potential changes, profiling panel, cell-based, JC-1 fluorescence, 3T3-L1 adipocytes, 24 h, 100 nL compound (AID 1168); note: test concentration not given here
run.parameters: JC-1 mitochondrial fluorescence, higher = more signal, called active from +8 up or from −8 down
Active and inactive are the calls of the source.
measured.parameter: z-score

Guide cases for z-score, answers given:
Asked: State, in one line, measured z-score of CN(C)CCCC[C@@H]1NC(=O)[C@H]2C[C@@H](C(=O)NCCCCCCN)[C@@H](c3ccc(O)cc3)N2C1=O
Given back: 0.862 (inactive)

Asked: State, in one line, measured z-score of CC(C)C(=C=CC[C@@H](O)c1ccc(OCCO)cc1)C[C@@H](O)c1ccccn1
Given back: 0.00461 (inactive)

Asked: State, in one line, measured z-score of CC(C)C(=C=CC[C@@H](O)c1ccc(OCCO)cc1)C[C@@H](O)COCc1ccccc1
Given back: 0.404 (inactive)

Asked: State, in one line, measured z-score of COc1ccc(CCNC(=O)[C@@H]2c3ccccc3C(=O)N(Cc3ccccc3Cl)[C@H]2c2ccc(CO)cc2)cc1
Given back: 0.716 (inactive)

For each entry beneath this line, provide reported z-score.
1. C=CCOC(=O)[C@H]1[C@@H]2C(=O)O[C@@H](c3ccccc3)[C@@H](c3ccccc3)N2[C@@H](c2ccc(OCCOC(=O)[C@H]3C[C@H]4C(=O)N[C@@H](CCCC[N+](C)(C)C)C(=O)N4[C@H]3c3ccc(O)cc3)cc2)[C@]12C(=O)Nc1ccc(I)cc12
2. O=C1C[C@]2(c3ccc([N+](=O)[O-])cc3)C(=O)N(CC(F)(F)F)c3cc(CO)ccc3[C@H]2N1C1CCCCC1
3. COC(=O)C(CC#Cc1ccc2c(c1)[C@]1(C(=O)N2)[C@H](c2ccc(OCCO)cc2)N2[C@H](c3ccccc3)[C@H](c3ccccc3)OC(=O)[C@H]2[C@@H]1C(=O)N1CCc2cc(OC)c(OC)cc2C1)C(=O)OC

Given back:
1. -0.672 (inactive)
2. 0.986 (inactive)
3. -0.0627 (inactive)
